Data provenance: PubChem BioAssay (NCI)

Field: TGI. Provide a value for each of the compounds that follow.
- Test system: OVCAR-8 ovarian
- TEST_DESCRIPTION: NCI tumour cell line growth inhibition, 48 h

Field: example entries. Status: answers known.
Cc1nc2sc(C(=O)Nc3cccc4ccccc34)c(N)c2cc1C(C)O (stereo unspecified) = > 50 µM
COC(=O)c1ccc(CN2CCc3c([nH]c4ccccc34)C2CO)o1 (stereo unspecified) = > 10 µM
COc1ccc(CC(=O)c2cc(OC)c(OC)cc2C)cc1OC = > 100 µM
O=C(Cc1ccccc1)Oc1ccc2c(-c3ccccc3)c(C(=O)Nc3ccc(Cl)cc3)c(=O)oc2c1 = > 100 µM
O=C(CCN1CCCCC1CCO)Nc1ccc2c(c1)C(=O)c1ccc(NC(=O)CCN3CCCCC3CCO)cc1C2=O (stereo unspecified) = 15.1 µM
COc1ccc2c(c1)Oc1nc(N)c(C#N)c(N)c1C2Sc1ccc(SC)cc1 (stereo unspecified) = 3.19 µM
N#CI1OC(=O)c2ccccc21 = > 100 µM
OCC(O)CC[CH2][Sn]([c]1ccccc1)([c]1ccccc1)[c]1ccccc1 (stereo unspecified) = 31.5 µM
CC(C)(C)C1CC[C@H]2c3c([nH]c4ccc(Br)cc34)[C@H]3C(=O)N(c4ccccc4)C(=O)[C@H]3[C@H]2C1 (stereo partly specified) = 11.8 µM
N#Cc1[nH]c(=O)n(-c2ccc([N+](=O)[O-])cc2)c1N = > 10 µM

# batch: return TGI for each of the 6 compounds below
1. O=S(=O)(c1cccc(C(F)(F)F)c1)N1c2ccccc2-n2cccc2C1c1cccnc1 (stereo unspecified)
2. O=c1cnn(C2OC(CO)C(O)C(F)C2O)c(=O)[nH]1 (stereo unspecified)
3. CSc1n[nH]c(N)c1C(=O)Nc1ccc(Cl)cc1
4. CC12CC3c4ccccc4CN1C3(c1ccccc1)OC2=O (stereo unspecified)
5. COc1ccc(/C=C2/CN(C(=O)c3ccccc3F)C/C(=C\c3ccc(OC)cc3)C2=O)cc1
6. COC1/C=C\C=C(/C)C(=O)NC2=CC(=O)C(NCCCl)=C(CC(C)CC(OC)C(O)C(C)/C=C(/C)C1OC(N)=O)C2=O (stereo unspecified)

[A]
> 100 µM
> 100 µM
> 100 µM
> 100 µM
85.1 µM
10.5 µM
